Data origin, for the record: the RNAGym collection of RNA variant scans (doi:10.1073/pnas.2313332121)

B1: TPR 5TU (parent)
chain: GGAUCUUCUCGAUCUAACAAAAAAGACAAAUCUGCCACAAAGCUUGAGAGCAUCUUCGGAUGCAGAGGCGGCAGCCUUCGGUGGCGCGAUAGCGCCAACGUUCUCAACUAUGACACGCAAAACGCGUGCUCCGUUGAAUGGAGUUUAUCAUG

- Variants of: B1
- test_name: polymerase ribozyme fitness, log enrichment relative to wild type (log ratio); higher = more active; in vitro selection for triplet polymerase activity
This sample holds only a part of the variants without activity.
assay_metric: polymerase ribozyme fitness (log ratio)
Could you keep your reply to the number by itself?

Task item: Write down polymerase ribozyme fitness (log ratio) measured for item A22U A41G G81A C87U C99U A119G G152A
Reply: -2.3

Task item: For A17G G70A C75G C96U C99G , write its polymerase ribozyme fitness (log ratio).
Reply: -4.15

Task item: In one line, give reported polymerase ribozyme fitness (log ratio) of the entry U56A C93U .
Reply: -2.13

Task item: Annotate the variant C75U A89C C95U with its measured polymerase ribozyme fitness (log ratio).
Reply: -0.65

Task item: Please supply the value of reported polymerase ribozyme fitness (log ratio) for the item A21U G50A C63G A89G C95U C116U
Reply: -1.96

Task item: Provide one value: measured polymerase ribozyme fitness (log ratio) of C38G C85A C116A A120G
Reply: -2.28

Task item: Please look at this variant and report its polymerase ribozyme fitness (log ratio): A21G C76A G86U C93G U101C A122G
Reply: -0.0234

Task item: Note down polymerase ribozyme fitness (log ratio) recorded for A60U U61A A142C
Reply: -3.49

Task item: Assign polymerase ribozyme fitness (log ratio) to the following record: A12G C54U C69G U145G
Reply: -4.06

Task item: Provide measured polymerase ribozyme fitness (log ratio) value, entry: C57U A110G
Reply: -2.85

Task item: Find the measured polymerase ribozyme fitness (log ratio) of C87U A120G and report it.
Reply: -1.85

Task item: In one line, give reported polymerase ribozyme fitness (log ratio) of the entry A39G C118U .
Reply: -1.27

Task item: Find the measured polymerase ribozyme fitness (log ratio) of A49G G84U U145G and report it.
Reply: -3.09

Task item: Consider the variant A12U A26C C36U and give its recorded polymerase ribozyme fitness (log ratio).
Reply: -3.95

Task item: Read off the recorded polymerase ribozyme fitness (log ratio) for `G92C`
Reply: -0.459

Task item: Given C32A G84A , respond with its polymerase ribozyme fitness (log ratio).
Reply: -3.57

Task item: Supply reported polymerase ribozyme fitness (log ratio) belonging to this variant: U13A A26U C76U U146A
Reply: -3.35

Task item: Tell us which polymerase ribozyme fitness (log ratio) value is on record for A22U C38U C57U G94C G126U
Reply: -0.0445

Task item: Indicate the recorded polymerase ribozyme fitness (log ratio) value for this variant: A73U C105G
Reply: -3.79

Task item: Please report polymerase ribozyme fitness (log ratio) for the following variant: G42C A60G
Reply: -4.05

Task item: Specify reported polymerase ribozyme fitness (log ratio) for the variant shown: A52G C96U
Reply: -1.46

Task item: Please report polymerase ribozyme fitness (log ratio) for the following variant: U13C G59C U61G C79U G84A C132A
Reply: -4.17

Task item: Supply polymerase ribozyme fitness (log ratio) value. Item: G25U C76U G94C A120G
Reply: -2.88

Task item: Supply measured polymerase ribozyme fitness (log ratio) of G83A C95U in your reply.
Reply: -0.657

Task item: Return polymerase ribozyme fitness (log ratio) for the following variant: C85A G117A A138G
Reply: -4.18

Task item: Return polymerase ribozyme fitness (log ratio) for the following variant: A12G U53G G59A C95G A98C U146A
Reply: -1.26
